A collection of compounds and their measured IC50
Target entity: BRD4-BD1 (Homo sapiens (Human), UniProt O60885)
Method description: BRD4 AlphaScreen assay, BRD4-BD1
Stated conditions: biotin-labeled tetra-acetylated histone H4 peptide, 75 min, room temperature, read-out: BRD4 BD-1 enzyme IC50
Where a name gives a salt, the structure may show the parent alone.

Use the examples below as a reference point.
{"columns": ["Compound", "IC50"],
 "data": [
  ["Cc1nc2c(ccc3nnc(C)n32)n1Cc1ccccc1", "100 to 1000 nM"],
  ["Cc1nnc2ccc3c(cc(-c4ncco4)n3Cc3cccc(Cl)c3)n12 [Example 194, Trifluoroacetate Salt]", "≤ 100 nM"],
  ["CC(=O)Nc1cccc(Cn2c(C)cc3c2ccc2nnc(C)n23)c1 [Example 25, Trifluoroacetate Salt]", "100 to 1000 nM"],
  ["Cc1cc2c(cc(NC(N)=O)c3nnc(C)n32)n1Cc1cc(F)cc(F)c1", "≤ 100 nM"],
  ["Cc1cc2c(cc(NC(=O)C(C)C)c3nnc(C)n32)n1Cc1ccccc1", "≤ 100 nM"],
  ["Cc1nnc2ccc3c(cc(C(=O)NC(C)(C)C)n3Cc3cccc(Cl)c3)n12 [Example 120, Trifluoroacetate Salt]", "100 to 1000 nM"],
  ["Cc1nnc2ccc3c(ccn3S(=O)(=O)c3ccccc3)n12", "100 to 1000 nM"],
  ["Cc1nnc2ccc3c(cc(-c4ccn(CCC(=O)NC5CCOCC5)n4)n3Cc3cccc(Cl)c3)n12 [Example 170, Trifluoroacetate Salt]", "≤ 100 nM"]
]}

The compound identified as Cc1cc2c(ccc3nnc(C)n32)n1Cc1ccc(CO)cc1 registered its IC50 at 100 to 1000 nM

Looking up Cc1nnc2ccc3c(cc(C(=O)N4CC(C#N)C4)n3Cc3ccccc3)n12 , I found its IC50 recorded as 100 to 1000 nM

The value of IC50 measured for the compound Cc1cc2c(ccc3nnc(C)n32)n1Cc1cccc(CN2CCNCC2)c1 turned out to be 100 to 1000 nM

Summary for this compound, CNC(=O)c1cc2c(ccc3nnc(C)n32)n1Cc1cc(Cl)cc(CN2CCC(F)(F)C2)c1 [Example 134, (trifluoroacetate) Salt] : IC50 is ≤ 100 nM

Looking up Cc1cc2c(cc(N[C@H]3CC[C@@H](N)CC3)c3nnc(C)n32)n1Cc1ccccc1 , I found its IC50 recorded as ≤ 100 nM

get_value(item= Cc1cc2c(cc(NC(N)=O)c3nnc(C)n32)n1Cc1cccc(C(F)(F)F)c1 , readout=IC50) returns ≤ 100 nM

Per the record, Cc1cc2c(cc(N[C@H]3CCNC3)c3nnc(C)n32)n1Cc1ccccc1 [Example 152, bis(trifluoroacetate) Salt] has IC50 of ≤ 100 nM

What the record says about Cc1nnc2ccc3c(cc(-c4ncco4)n3Cc3cc(Cl)cc(CN4CCCC4)c3)n12 [Example 197, bis(trifluoroacetate) Salt] : IC50 is ≤ 100 nM
